Measured growth of individual entries
Test system: MDA-MB-231 breast
assay.overview: NCI-60 one-dose screen, 48 h (100 = growth as untreated, 0 = no growth, -100 = all killed)
test.parameters: 10 µM unless noted
This is part of a sample that, as a whole, favours compounds with a hit. Of some 83,000 tested, about 20% had one in any assay. The source made the active and inactive calls. How the source made its calls: active means growth percent below 10; inactive means the rest.
property.measured: growth

1. O=C1Nc2cc(-c3ccc(NS(=O)(=O)c4ccc(F)c(Cl)c4)cc3)ccc2/C1=C/c1ccc[nH]1 ... -6.71% (active)
2. N#Cc1c(-c2ccc(F)cc2)nc(SCc2ccccc2)nc1N1CCNCC1 ... -98.5% (active)
3. FC(F)(F)c1cc2c(Cl)ncnc2n1CCN1CCCCC1 ... 38.8% (inactive)
4. S=C(Nc1ccccc1)Nc1ccc(OCc2nc3ccc(Cl)cc3[nH]2)cc1 ... 80% (inactive)
5. O=C(O)CC1S/C(=N/N=C/c2nc3ccccc3s2)NC1=O (stereo not given) ... 102% (inactive)

###

Tested on: MDA-MB-468 breast
assay.overview: NCI-60 one-dose screen, 48 h (100 = growth as untreated, 0 = no growth, -100 = all killed)
test.parameters: 10 µM unless noted
This is part of a sample that, as a whole, favours compounds with a hit. Of some 83,000 tested, about 20% had one in any assay.
Let's look at some molecules and their measured growth.
property.measured: growth (%)

1) Cc1ccc(C2CC(c3ccc(NC(=O)Nc4ccccc4)cc3)=NN2c2ccc(S(C)(=O)=O)cc2)cc1 (stereo not drawn) ... -1.05
2) COc1cc2cc(C(=O)N3C[C@@H](CCl)c4c3cc(OC(=O)N(CCC(=O)N3CCN(C)CC3)C3CCCCC3)c3ccccc43)[nH]c2c(OC)c1OC ... -91.8
3) OCCn1cc(-c2nc3ccc4[nH]ncc4c3c3c2CCCC3)cn1 ... 3.83
4) COc1cc(CNC(=O)C[C@H](C)CCC=C(C)C)ccc1OCc1cn(-c2ccccc2F)nn1 ... 57.7
5) Cc1ccc(C(=O)Nc2cc(-n3cnc(F)c3)cc(C(F)(F)F)c2)cc1C#Cc1cnc2cccnn12 ... 81.7
6) C/C(=N/O)c1ccc(NC(=O)CSc2nnc(-c3ccc4nc(-c5ccc(Cl)cc5)[nH]c4c3)o2)cc1 ... 122
7) Cc1ccc(O)cc1Nc1nc(SCCN2CCOCC2)nc2c1cnn2CC(Cl)c1ccc(Br)cc1 (stereo not drawn) ... -55.7
8) ClC(Cn1ncc2c(Nc3cccc(Br)c3)nc(SCCN3CCOCC3)nc21)c1ccc(Br)cc1 (stereo not drawn) ... -18

###

Tested on: SK-MEL-28 melanoma
assay.overview: NCI-60 one-dose screen, 48 h (100 = growth as untreated, 0 = no growth, -100 = all killed)
test.parameters: 10 µM unless noted
Compounds without any hit were thinned out: in the full panel of roughly 83,000, 20% have a hit.
Quick reference for growth among some molecules
property.measured: growth (%)

1) CN(C)CCCc1ccc(Nc2cnn(C)c(=O)c2Cl)cc1 ... 111
2) CCN1CCN(Cc2ccc(C(=O)Nc3cccc(Nc4ccc5c(OC)cccc5n4)c3)cc2C(F)(F)F)CC1 ... -100
3) CN(C)c1nc(NCCNS(=O)(=O)c2ccc(C(=O)/C=C/c3ccccc3)cc2)nc(N2CCOCC2)n1 ... 88
4) Cn1cc(-c2cc(N)n3nc(-c4c[nH]c5ccc(F)cc45)cc3n2)c2cccnc21 ... -92.6
5) COc1c(B(O)O)cccc1-c1nc2ccc3cn[nH]c3c2c2c1CCCC2 ... 86.6
6) COc1ccc(/C=C/c2nc3ccccc3n3c(-c4cccc([N+](=O)[O-])c4)nnc23)cc1 ... -47.1
7) O=c1ccc(Cn2c(C(F)(F)F)cc3c(Cl)ncnc32)c[nH]1 ... 40.8
8) COc1ccc(C2=Nc3c(N)nc(N)nc3NC(c3ccc(Oc4nc(Nc5ccc(F)cc5)nc(N(C)C)n4)c(OC)c3)C2)cc1 (stereo not drawn) ... 93.2
9) COc1cc(CNC(=O)C[C@H](C)CCC=C(C)C)ccc1OCc1cn(-c2ccccc2Cl)nn1 ... 69.8
10) COc1ccc(C(=O)c2cc(C(C)=O)c3c(C)cc(C)cn23)cc1 ... 72.9
11) O=C(N/N=C/c1ccc(Cl)o1)c1[nH]c2ccc(Br)cc2c1-c1ccccc1 ... 2.44
12) COc1sc(/C=N/NC(=O)c2[nH]c3ccc(Br)cc3c2-c2ccccc2)cc1Cl ... -33.1
13) Cn1cc(-c2cc3nc(-c4c[nH]c5ccccc45)cc(N)n3n2)c2ccccc21 ... -97.8
14) COc1ccc(NC(=O)Cn2c(/C=C/c3cccc(Br)c3)nc3ccccc3c2=O)cc1 ... 70.2
15) Nc1nc2cc(-c3ccc4ncnc(NCc5ccccc5)c4c3)ccc2o1 ... 10.7
16) COc1cccc(C(N)=Nc2ccc(OCCCCCCCCn3cncn3)cc2)c1 ... 55.3
17) CC[C@]12C=CCN3CC[C@@]4(c5ccc(OC)cc5N(C)[C@H]4[C@@](O)(C(=O)OC)[C@@H]1OC(=O)CCCC[P+](c1ccc(F)cc1)(c1ccc(F)cc1)c1ccc(F)cc1)[C@@H]32 ... -54.9
18) O=C(c1ccc(Cl)cc1)C1[C@H](c2ccccc2Cl)[C@@H](c2ccccc2)NC12C(=O)Nc1ccccc12 (stereo partly drawn) ... -57.3

###

Test system: HS 578T breast
assay.overview: NCI-60 one-dose screen, 48 h (100 = growth as untreated, 0 = no growth, -100 = all killed)
test.parameters: 10 µM unless noted
Compounds without any hit were thinned out: in the full panel of roughly 83,000, 20% have a hit.
# note: boundary value 20% maps to not satisfied; growth below it maps to satisfied

1. OC1CCC(Cn2c(C(F)(F)F)cc3c(Cl)ncnc32)CC1 (centres undefined) ... satisfied
2. O=C(CSc1nc2ccccc2c(=O)[nH]1)NNC(=O)c1ccccc1Cl ... not satisfied
3. CC1=C(C(=O)OCc2ccccc2)C(c2cccc3ccccc23)n2c(nc3ccccc32)N1 (centres undefined) ... satisfied
4. O=C1/C(=C/c2cnc(-c3ccccc3)s2)SC(=S)N1Cc1ccc2c(c1)OCO2 ... not satisfied
5. Cc1ccc(C2CC(c3ccc(NC(=O)Nc4ccccc4)cc3)=NN2c2ccc(S(C)(=O)=O)cc2)cc1 (centres undefined) ... not satisfied
6. COc1cccc(-c2ccc(/C=N/NC(=O)c3[nH]c4ccc(Br)cc4c3-c3ccccc3)s2)c1 ... satisfied
7. O=C(N/N=C/c1ccc(Cl)cc1)c1ccc(OCc2nc3ccc(Cl)cc3[nH]2)cc1 ... not satisfied
8. COc1ccc(-c2nnc3c(/C=C/c4ccc(Br)cc4)nc4ccccc4n23)cc1 ... not satisfied
9. COc1cc(CNC(=O)C[C@H](C)CCC=C(C)C)ccc1OCc1cn(-c2ccc(Br)cc2)nn1 ... not satisfied

###

System: MOLT-4 leukemia
assay.overview: NCI-60 one-dose screen, 48 h (100 = growth as untreated, 0 = no growth, -100 = all killed)
test.parameters: 10 µM unless noted
The panel holds about 83,000 compounds, 20% with a hit somewhere; the sample as a whole holds those more often.
property.measured: growth (%)

1. CC(C)CN1C(=O)/C(=C\C(=O)c2cc3ccccc3oc2=O)c2ccccc21 ... 40
2. CC1=C(C(=O)OC(C)C)C(c2ccc(O)cc2)NC(=O)N1 (stereo unspecified) ... 97.8
3. Clc1ccc(Nc2nnc(-c3c[nH]c4ccccc34)o2)cc1 ... 9.41
4. O=C1Nc2cc(-c3ccc(NS(=O)(=O)c4ccc(C(F)(F)F)cc4)cc3)ccc2/C1=C/c1ccc[nH]1 ... 6.52
5. O=C(N/N=C/c1ccoc1)c1[nH]c2ccc(Br)cc2c1-c1ccccc1 ... -5.76
6. Cn1cc(-c2cc(N)n3nc(-c4c[nH]c5ccc(F)cc45)cc3n2)c2cccnc21 ... -30.1
7. Cc1ccc2c(c1)/C(=C/C(=O)c1cc3ccccc3oc1=O)C(=O)N2 ... 32.8
8. COc1ccc(N=Nc2c(N)nn3c(N)c(C#N)c(-c4ccccc4)nc23)cc1 ... 72.8
9. O=C(CSc1nnc(-c2ccc(-c3nc4ccc(Cl)cc4[nH]3)cc2)o1)Nc1ccccc1 ... 10.7
10. COc1ccc2nc(NC(=O)c3ccc(N(C)C)cc3)sc2c1 ... 43.1
11. COc1ccc([C@H]2C(C(=O)c3ccc(Cl)cc3)C3(N[C@@H]2c2ccccc2)C(=O)Nc2ccccc23)cc1 (stereo partly specified) ... 18.9
12. O=C(Nc1ccc(-c2ccc3c(c2)NC(=O)/C3=C\c2ccc[nH]2)cc1)Nc1ccc(Cl)c(Cl)c1 ... 33.5
13. COc1ccc2[nH]cc(-c3cc(N)n4nc(-c5c[nH]c6ccccc56)cc4n3)c2c1 ... -7.46
14. N#Cc1ccc(C(=O)CSc2nc3c(c(Nc4ccc(S(N)(=O)=O)cc4)n2)CCC3)cc1 ... 73.3
15. Nc1nnc(-c2cncc(Br)c2)c(-c2c[nH]c3ccc(Cl)cc23)n1 ... 54.4
16. CC[C@]12C=CCN3CC[C@]4(C(=C(C(=O)OC)C1)Nc1cc(OC)c([C@@H]5[C@H]6O[C@H]6[C@@]6(CC)CC(C(=O)OC)=C7Nc8cc(O)ccc8[C@@]78CCN5[C@@H]68)cc14)[C@@H]32 ... -11.5
17. O=CNc1ccc(-n2cnc3cc(-c4ccc(O)cc4)ccc32)cc1 ... 77.3
18. COc1cc(/C=C/C(=O)c2cnn(-c3cc(=O)[nH]c4ccc(Cl)cc34)c2C)cc(OC)c1OC ... -10.9
19. O=C(CSc1nc2sc3c(c2c(=O)n1-c1ccc(Cl)cc1)CCCC3)NNC(=O)c1ccc(F)cc1 ... 81.3
20. COc1cc(CNC(=O)[C@]23CCC(C)(C)CC2C2=CCC4[C@@]5(C)CCC(OC(C)=O)C(C)(C)C5CC[C@@]4(C)[C@]2(C)CC3)ccc1OCc1cn(-c2ccc(Cl)cc2Cl)nn1 (stereo partly specified) ... 104
21. O=C(c1cc2cc(OCCCN3CCC3)ccc2[nH]1)N1C[C@@H](CCl)c2c1cc(OCc1ccccc1)c1ccccc21 ... -15.4
22. COc1ccc(-c2nc3ccc(-c4nnc(SCc5ccccc5)o4)cc3[nH]2)cc1 ... 11.5
23. Clc1ccc(-c2nc3c4c(-c5ccccc5)c(-c5ccccc5)n(Cc5ccccc5)c4ncn3n2)cc1 ... -5.99
24. Cc1ccc2nc(COc3ccc(C(=O)NNC(=O)Nc4ccc(Cl)c(C(F)(F)F)c4)cc3)[nH]c2c1 ... 75.5
25. CCCn1c(NC(=O)c2cccc(C(N)=O)c2)nc2cc(CN3CCCCC3)ccc21 ... 94.8
26. CCCCCCCCCCCCCCCCCC(=O)Nc1ccc(OC)cc1 ... 102
27. COc1ccccc1NC(=O)c1ccc(NC(=O)CCl)s1 ... -19.5
28. CN1CCN(C(=O)CCN(C(=O)Oc2cc3c(c4ccccc24)[C@H](CCl)CN3C(=O)c2cc3cc(OCCCN4CCC4)ccc3[nH]2)[C@H]2CCSSC2)CC1 ... -35.3
29. Cc1ccc(S(=O)(=O)Nc2ccc(-c3ccc4c(c3)NC(=O)/C4=C\c3ccc[nH]3)cc2)cc1 ... 68.1
30. CCCCCCCCc1ccc(C(=O)Nc2ccc(C)c(OP(=O)(O)O)c2)cc1 ... 78.3
31. Oc1ccc(Cl)c(Nc2nc(SCCN3CCOCC3)nc3c2cnn3CC(Cl)c2ccc(Br)cc2)c1 (stereo unspecified) ... -24
32. O=C(N=Nc1c(O)[nH]c2ccc(Br)cc12)c1ccc2nc(-c3ccc(Cl)cc3)[nH]c2c1 ... -0.379
33. COc1cc(NC(=O)C(C)C)ccc1C(=O)NC(=S)Nc1ccc(S(N)(=O)=O)cc1 ... 118
34. C#CCN(C)CCCOc1ccc(N(C)C(=O)c2cc(C(C)C)c(O)cc2O)cc1Cl ... -14
35. c1n[nH]cc1-c1nc2ccc3[nH]ncc3c2c2c1CC1(CC2)COC1 ... 32.8
36. COc1ccc(C(=O)NNC(=O)CSc2nc3sc4c(c3c(=O)n2-c2ccc(Cl)cc2)CCCC4)cc1 ... 63.7
